All values here come from PubChem BioAssay AID256.

Test system: CD2F1 mice, L1210 leukemia ip, survival T/C
procedure details: NCI In Vivo Anticancer Drug Screen. Data for tumor model L1210 Leukemia (intraperitoneal) in CD2F1 (CDF1) mice
recorded conditions: endpoint: mean survival time; dose: 50.0 mg/kg/injection; schedule: Q04DX003 (ip); vehicle: Klucel (hydroxypropylcellulose) (HPC); higher = longer survival
Inconclusive results and toxic doses are left out.
readout name: T/C

Reported T/C for CC12CCC(=O)C=C1CCC1C2C(=O)CC2(C)C1CCC2(O)C(=O)Cn1c(=O)[nH]cc(F)c1=O (stereo not given) : what is it?
100 % of control

Continuing:
Reported T/C for Cc1c[nH]c(=O)n(CC(=O)C2CCC3C4CCC5=CC(=O)CCC5(C)C4CCC23C)c1=O (stereo not given) : what is it?
97 % of control

Reported T/C for Cc1ccc(C(=O)CCl)c(C)c1 : what is it?
103 % of control

Reported T/C for CC(=O)C1CCC2C3CC=C4CC(n5ccc(=O)[nH]c5=O)CCC4(C)C3CCC12C (stereo not given) : what is it?
97 % of control

Reported T/C for CN(C(=O)c1c(Cl)n(C)c2ccccc12)c1ccccc1 : what is it?
101 % of control

---

Tested on: CD2F1 mice, L1210 leukemia ip, survival T/C
procedure details: NCI In Vivo Anticancer Drug Screen. Data for tumor model L1210 Leukemia (intraperitoneal) in CD2F1 (CDF1) mice
recorded conditions: endpoint: mean survival time; dose: 200.0 mg/kg/injection; schedule: Q04DX003 (ip); vehicle: Klucel (hydroxypropylcellulose) (HPC); higher = longer survival
Toxic doses and inconclusive results are not listed.
Measured T/C of individual entries

Example cases with answers are listed next.
Reported T/C for O=C(O)C(=CCc1cccc2ccccc12)C(=O)O : what is it?
100 % of control

Reported T/C for CC(CCC(=O)c1ccccc1)c1ccc2ccccc2c1 (stereo not drawn) : what is it?
104 % of control

Reported T/C for ClC1C(Cl)C(Cl)C(Cl)C(Cl)C1Cl (stereo not drawn) : what is it?
107 % of control

Reported T/C for c1ccc(Cc2ccccc2-c2ccccc2)cc1 : what is it?
89 % of control

Reported T/C for CC(=O)c1ccc(-c2ccccc2)cc1 : what is it?
103 % of control

Reported T/C for O=C(CCl)Nc1ccccc1Cl : what is it?
103 % of control

Reported T/C for CCN(CC)CC(COC)Oc1cc(C)ccc1C(C)C (stereo not drawn) : what is it?
93 % of control

Continuing:
Reported T/C for Cn1c(=O)c(CC(O)C(Cl)(Cl)Cl)nc2ccccc21 (stereo not drawn) : what is it?
95 % of control

---

Test system: CD2F1 mice, L1210 leukemia ip, survival T/C
procedure details: NCI In Vivo Anticancer Drug Screen. Data for tumor model L1210 Leukemia (intraperitoneal) in CD2F1 (CDF1) mice
recorded conditions: endpoint: mean survival time; dose: 200.0 mg/kg/injection; schedule: Q01DX005 (ip); vehicle: distilled water + Tween-80; higher = longer survival
Toxic doses and inconclusive results are not listed.
readout name: T/C

Reported T/C for Cn1c(=O)c2c(nc(NCCCO)n2C)n(C)c1=O : what is it?
98 % of control

Reported T/C for CCOc1nc(=O)n(C2OC(CO)C(O)C2O)s1 (configuration not stated) : what is it?
102 % of control

Reported T/C for Nc1ncnc2c1[nH]c(=O)n2C1OC(CO)C2OC21 (configuration not stated) : what is it?
95 % of control

Reported T/C for Cc1cn(C2CC(O)C(COC(c3ccccc3)(c3ccccc3)c3ccc(OCC(=O)O)cc3)O2)c(=O)[nH]c1=O (configuration not stated) : what is it?
94 % of control

Reported T/C for CC(=O)OC1COC(n2c(=S)n(-c3ccccc3)c(=N)c3ccccc32)C(OC(C)=O)C1OC(C)=O (configuration not stated) : what is it?
92 % of control

Reported T/C for CCn1c(=O)c2c(nc(Cl)n2C2OC(COC(C)=O)C(OC(C)=O)C(OC(C)=O)C2NC(C)=O)n(CC)c1=O (configuration not stated) : what is it?
97 % of control

Reported T/C for CC(O)C1OC(n2cnc3c(=O)[nH]cnc32)C(O)C1O (configuration not stated) : what is it?
100 % of control

---

System: CD2F1 mice, L1210 leukemia ip, survival T/C
procedure details: NCI In Vivo Anticancer Drug Screen. Data for tumor model L1210 Leukemia (intraperitoneal) in CD2F1 (CDF1) mice
recorded conditions: endpoint: mean survival time; dose: 75.0 mg/kg/injection; schedule: Q01DX001 (ip); vehicle: saline; higher = longer survival
Toxic doses and inconclusive results are not listed.
readout name: T/C

Reported T/C for CCC/C=C(\C#N)C(=O)OC : what is it?
97 % of control

Reported T/C for NNC(=O)c1cccc([N+](=O)[O-])c1 : what is it?
109 % of control

Reported T/C for CC(C)N1CCOC1c1ccccc1 (stereo unspecified) : what is it?
101 % of control

Continuing:
Reported T/C for CCCC(C)C1C(=O)N(C)C(=O)N(C)C1=O (stereo unspecified) : what is it?
104 % of control

Reported T/C for Cc1ncc(C[P+](c2ccccc2)(c2ccccc2)c2ccccc2)c2c1OC(C)(C)OC2 : what is it?
103 % of control

Reported T/C for COc1cc2c(cc1OC)C13CCN4CC5=CCOC(CC(=O)O)C(C5CC41)C3N2 (stereo unspecified) : what is it?
101 % of control

---

System: CD2F1 mice, L1210 leukemia ip, survival T/C
procedure details: NCI In Vivo Anticancer Drug Screen. Data for tumor model L1210 Leukemia (intraperitoneal) in CD2F1 (CDF1) mice
recorded conditions: endpoint: mean survival time; dose: 200.0 mg/kg/injection; schedule: Q04DX003 (ip); vehicle: saline with Tween-80; higher = longer survival
Toxic doses and inconclusive results are not listed.
Measured T/C of individual entries

Reported T/C for O=CNc1ccc2c(c1)C(Br)c1ccccc1-2 (stereo unspecified) : what is it?
100 % of control

Reported T/C for CC(C)CCCC(C)C1CCC2C3CC(CO)C4CC(O)CCC4(C)C3CCC12C (stereo unspecified) : what is it?
88 % of control

Reported T/C for c1ccc2c(c1)Cc1nc3ccccc3nc1-2 : what is it?
103 % of control

Reported T/C for CCOC1=NN(c2ccccc2)C(=O)C1 : what is it?
100 % of control

Reported T/C for COc1cc(/C=C2\C(=O)NC(=O)N(c3ccccc3)C2=O)cc(OC)c1OC : what is it?
100 % of control

Continuing:
Reported T/C for O=C(O)/C=C/C(=O)Nc1ccccc1Cl : what is it?
105 % of control

---

Measured T/C of individual entries
Test system: CD2F1 mice, L1210 leukemia ip, survival T/C
procedure details: NCI In Vivo Anticancer Drug Screen. Data for tumor model L1210 Leukemia (intraperitoneal) in CD2F1 (CDF1) mice
recorded conditions: endpoint: mean survival time; dose: 100.0 mg/kg/injection; schedule: Q01DX009 (ip); vehicle: saline with Tween-80; higher = longer survival
Description: The antitumor activity of compounds was measured in mice bearing transplantable tumors. Survival or tumor size were measured and the results are expressed as the measurement made in the treated group (T) divided by the measurement made in the vehicle treated control group (C). The tumor model used in this assay is L1210 Leukemia (intraperitoneal) in CD2F1 (CDF1) mice
Inconclusive results and toxic doses are left out.

Reported T/C for O=c1[nH]cc(Br)c2sccc12 : what is it?
104 % of control

Reported T/C for O=C(O)C1=CCC=CC1 : what is it?
104 % of control

Reported T/C for CCOC(=O)c1c(C)[nH]oc1=O : what is it?
96 % of control

Reported T/C for NS(=O)(=O)c1cc([N+](=O)[O-])ccc1Cl : what is it?
91 % of control

Reported T/C for N#CCCNCCNCCC#N : what is it?
104 % of control

Continuing:
Reported T/C for O=c1ccc2ccc(O)cc2o1 : what is it?
93 % of control

Reported T/C for O=C(OCc1ccccc1)OC1C2COC(O2)C(OC(=O)OCc2ccccc2)C1O (centres undefined) : what is it?
95 % of control

Reported T/C for COC(=O)C=P(c1ccccc1)(c1ccccc1)c1ccccc1 : what is it?
100 % of control

Reported T/C for COC(=O)c1cc2ccccc2o1 : what is it?
100 % of control

Reported T/C for COc1cc(OC)c2c(c1Cl)OCC2=O : what is it?
91 % of control

Reported T/C for CC(C)Cc1ccc(OC(=O)Nc2ccc(Cl)cc2)cc1 : what is it?
95 % of control

Reported T/C for CN(CSc1ccc(Cl)cc1)c1ccccc1 : what is it?
96 % of control

Reported T/C for O=C(O)CCC(=O)CCC(=O)c1ccccc1 : what is it?
98 % of control

Reported T/C for O=C1c2ccccc2C(=O)N1c1c2ccccc2cc2ccccc12 : what is it?
95 % of control

Reported T/C for CCCCCCCC(=O)Nc1c(C)cccc1C : what is it?
96 % of control

Reported T/C for OCC(O)C(O)C(O)C(O)/C=N/O (centres undefined) : what is it?
97 % of control

Reported T/C for COc1cc2ccnc(/C=N\NC(N)=S)c2cc1OC : what is it?
96 % of control

Reported T/C for NC(=O)NC(=O)c1cccc([N+](=O)[O-])c1 : what is it?
104 % of control

Reported T/C for CC(=O)CC(C)(C)N : what is it?
97 % of control
